Origin of values: the supplement of paper PMC10567573

B1: PRAME (parent)
chain: KKLKIFAMPMQDIKMILKMVQLDS

variants of: B1; experiment: protein stability index of a GFP-peptide fusion (GPS, HEK-293T) (PSI 1-6); higher = more stable; conditions: c terminus: a fixed tail appended;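 note: lentivirally expressed fusions sorted by FACS into six bins by GFP to DsRed ratio, PSI derived from sequencing read proportions per bin multiplied by bin number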
protein stability index of 3 or higher: yes. Under 3: no.

Below, 8 variants whose answers are already recorded.
L17H	no
L22H	yes
Q21E	no
M8C	yes
Q11C	no
Q11I	no
Q11P	yes
L22P	yes

Is protein stability index for K14Y at or above 3?
no

Would you say L3I shows protein stability index at minimum 3?
no

Exam item: decide whether the reported protein stability index for L17T is at least 3.
no

Confirm if protein stability index reported for the variant I16N is 3 or above.
no

hey, is protein stability index for this one >= 3? I5H
no
